test.system: T1, thyroid stimulating hormone receptor (full length human TSHR) (human, UniProt P16473 22-764)
T1 construct: Full length TSHR coated onto plastic tubes (TSHR coated tubes, as in WO2004/050708A2); also called TSH receptor
assay.comment: competitor ^125I-K1-70 IgG, TSHR coated tubes; 0.01 µg/mL in HBD
Documented Inhibition of binding (%) across a set of binders

Reference set (3 entries):
[
  {
    "binder": "K1-18 IgG (antibody, V domains shown, Human IgG1 kappa purified from hetero-hybridoma supernatant; it is not part of the secreted protein; also called human monoclonal TSHR autoantibody K1-18 (stimulating)) VH: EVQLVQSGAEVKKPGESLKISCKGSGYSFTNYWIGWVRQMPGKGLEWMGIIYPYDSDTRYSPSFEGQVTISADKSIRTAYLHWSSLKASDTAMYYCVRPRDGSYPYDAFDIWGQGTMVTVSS VL: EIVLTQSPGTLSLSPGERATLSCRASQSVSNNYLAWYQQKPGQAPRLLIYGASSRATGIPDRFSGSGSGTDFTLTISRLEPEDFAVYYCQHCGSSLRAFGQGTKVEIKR",
    "Inhibition of binding (%)": "3.1%"
  },
  {
    "binder": "K1-70 IgG (antibody, V domains shown, Human IgG1 lambda purified from hetero-hybridoma supernatant) VH: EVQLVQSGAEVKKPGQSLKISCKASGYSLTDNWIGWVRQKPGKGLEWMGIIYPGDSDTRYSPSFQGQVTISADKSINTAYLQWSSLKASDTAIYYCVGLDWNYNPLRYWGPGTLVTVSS VL: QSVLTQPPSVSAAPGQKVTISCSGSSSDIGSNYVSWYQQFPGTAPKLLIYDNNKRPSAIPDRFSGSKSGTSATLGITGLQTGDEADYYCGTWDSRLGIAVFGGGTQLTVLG",
    "Inhibition of binding (%)": "11.4%"
  },
  {
    "binder": "K1-70 Fab (Fab, V domains shown) VH: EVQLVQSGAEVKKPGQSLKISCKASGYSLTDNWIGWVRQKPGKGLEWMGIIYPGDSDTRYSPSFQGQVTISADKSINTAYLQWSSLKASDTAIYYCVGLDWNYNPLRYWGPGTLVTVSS VL: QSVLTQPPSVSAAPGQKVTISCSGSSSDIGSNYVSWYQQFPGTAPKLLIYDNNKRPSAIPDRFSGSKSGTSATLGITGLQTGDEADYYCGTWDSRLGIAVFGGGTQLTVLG",
    "Inhibition of binding (%)": "21.6%"
  }
]

We now examine a further binder.
// field: Inhibition of binding (%); key: K1-18 Fab (Fab, V domains shown) VH: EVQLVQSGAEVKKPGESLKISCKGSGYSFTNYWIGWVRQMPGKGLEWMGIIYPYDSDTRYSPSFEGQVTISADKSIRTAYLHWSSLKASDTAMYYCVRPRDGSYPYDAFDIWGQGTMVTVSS VL: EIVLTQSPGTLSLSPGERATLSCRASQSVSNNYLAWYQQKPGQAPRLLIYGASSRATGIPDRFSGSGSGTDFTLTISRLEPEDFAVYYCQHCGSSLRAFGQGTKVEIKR ; value = 1.1%
